// data source = ChEMBL document CHEMBL3046907

test system: Candida albicans; test: Antifungal activity against Candida albicans MTCC 227 after overnight incubation by broth microdilution method; format: functional
endpoint_name: MIC99 (µg/mL)

[[record]]
molecule = "Cc1ccc(Oc2nc3ccccc3cc2-c2c(C#N)c(N)n3c(nc4ccccc43)c2C#N)cc1"
unit_abbreviation = "µg/mL"
comparison_symbol = ">"
reading = 1000

[[record]]
molecule = "COc1ccc2nc(Oc3ccc(F)cc3)c(-c3c(C#N)c(N)n4c(nc5ccccc54)c3C#N)cc2c1"
unit_abbreviation = "µg/mL"
comparison_symbol = ">"
reading = 1000

[[record]]
molecule = "Cc1ccc(Oc2nc3ccc(C)cc3cc2-c2c(C#N)c(N)n3c(nc4cc(C)ccc43)c2C#N)cc1"
unit_abbreviation = "µg/mL"
comparison_symbol = "="
reading = 500

[[record]]
molecule = "Cc1ccc2nc(Oc3ccccc3)c(-c3c(C#N)c(N)n4c(nc5ccccc54)c3C#N)cc2c1"
unit_abbreviation = "µg/mL"
comparison_symbol = "="
reading = 250

[[record]]
molecule = "Cc1ccc2nc(Oc3ccc(F)cc3)c(-c3c(C#N)c(N)n4c(nc5cc(C)ccc54)c3C#N)cc2c1"
unit_abbreviation = "µg/mL"
comparison_symbol = ">"
reading = 1000

[[record]]
molecule = "COc1ccc(Oc2nc3ccccc3cc2-c2c(C#N)c(N)n3c(nc4ccccc43)c2C#N)cc1"
unit_abbreviation = "µg/mL"
comparison_symbol = "="
reading = 250

[[record]]
molecule = "Cc1ccc2c(c1)nc1c(C#N)c(-c3cc4ccccc4nc3Oc3ccc(F)cc3)c(C#N)c(N)n12"
unit_abbreviation = "µg/mL"
comparison_symbol = "="
reading = 250

[[record]]
molecule = "COc1ccc2nc(Oc3ccc(C)cc3)c(-c3c(C#N)c(N)n4c(nc5ccccc54)c3C#N)cc2c1"
unit_abbreviation = "µg/mL"
comparison_symbol = "="
reading = 500

[[record]]
molecule = "COc1ccc2nc(Oc3ccccc3)c(-c3c(C#N)c(N)n4c(nc5ccccc54)c3C#N)cc2c1"
unit_abbreviation = "µg/mL"
comparison_symbol = "="
reading = 500

[[record]]
molecule = "Cc1ccc2c(c1)nc1c(C#N)c(-c3cc4ccccc4nc3Oc3ccccc3)c(C#N)c(N)n12"
unit_abbreviation = "µg/mL"
comparison_symbol = "="
reading = 500

[[record]]
molecule = "COc1ccc(Oc2nc3ccc(OC)cc3cc2-c2c(C#N)c(N)n3c(nc4cc(C)ccc43)c2C#N)cc1"
unit_abbreviation = "µg/mL"
comparison_symbol = "="
reading = 500

[[record]]
molecule = "COc1ccc2nc(Oc3ccc(F)cc3)c(-c3c(C#N)c(N)n4c(nc5cc(C)ccc54)c3C#N)cc2c1"
unit_abbreviation = "µg/mL"
comparison_symbol = "="
reading = 500

[[record]]
molecule = "COc1ccc(Oc2nc3ccccc3cc2-c2c(C#N)c(N)n3c(nc4cc(C)ccc43)c2C#N)cc1"
unit_abbreviation = "µg/mL"
comparison_symbol = "="
reading = 200

[[record]]
molecule = "N#Cc1c(-c2cc3ccccc3nc2Oc2ccccc2)c(C#N)c2nc3ccccc3n2c1N"
unit_abbreviation = "µg/mL"
comparison_symbol = "="
reading = 1000

[[record]]
molecule = "Cc1ccc2nc(Oc3ccc(F)cc3)c(-c3c(C#N)c(N)n4c(nc5ccccc54)c3C#N)cc2c1"
unit_abbreviation = "µg/mL"
comparison_symbol = "="
reading = 250

[[record]]
molecule = "COc1ccc(Oc2nc3ccc(C)cc3cc2-c2c(C#N)c(N)n3c(nc4ccccc43)c2C#N)cc1"
unit_abbreviation = "µg/mL"
comparison_symbol = "="
reading = 1000

[[record]]
molecule = "N#Cc1c(-c2cc3ccccc3nc2Oc2ccc(F)cc2)c(C#N)c2nc3ccccc3n2c1N"
unit_abbreviation = "µg/mL"
comparison_symbol = "="
reading = 500

[[record]]
molecule = "Cc1ccc2nc(Oc3ccccc3)c(-c3c(C#N)c(N)n4c(nc5cc(C)ccc54)c3C#N)cc2c1"
unit_abbreviation = "µg/mL"
comparison_symbol = "="
reading = 500

[[record]]
molecule = "Cc1ccc(Oc2nc3ccc(C)cc3cc2-c2c(C#N)c(N)n3c(nc4ccccc43)c2C#N)cc1"
unit_abbreviation = "µg/mL"
comparison_symbol = "="
reading = 1000

[[record]]
molecule = "COc1ccc(Oc2nc3ccc(C)cc3cc2-c2c(C#N)c(N)n3c(nc4cc(C)ccc43)c2C#N)cc1"
unit_abbreviation = "µg/mL"
comparison_symbol = "="
reading = 1000

[[record]]
molecule = "COc1ccc2nc(Oc3ccccc3)c(-c3c(C#N)c(N)n4c(nc5cc(C)ccc54)c3C#N)cc2c1"
unit_abbreviation = "µg/mL"
comparison_symbol = "="
reading = 1000

[[record]]
molecule = "COc1ccc(Oc2nc3ccc(OC)cc3cc2-c2c(C#N)c(N)n3c(nc4ccccc43)c2C#N)cc1"
unit_abbreviation = "µg/mL"
comparison_symbol = ">"
reading = 1000

[[record]]
molecule = "COc1ccc2nc(Oc3ccc(C)cc3)c(-c3c(C#N)c(N)n4c(nc5cc(C)ccc54)c3C#N)cc2c1"
unit_abbreviation = "µg/mL"
comparison_symbol = "="
reading = 1000

[[record]]
molecule = "Cc1ccc(Oc2nc3ccccc3cc2-c2c(C#N)c(N)n3c(nc4cc(C)ccc43)c2C#N)cc1"
unit_abbreviation = "µg/mL"
comparison_symbol = "="
reading = 500

[[record]]
molecule = "COC1=CC(=O)C[C@@H](C)[C@]12Oc1c(Cl)c(OC)cc(OC)c1C2=O [GRISEOFULVIN]"
unit_abbreviation = "µg/mL"
comparison_symbol = "="
reading = 500

